# assayed-system: T1, orthogonal hCD122 receptor (hoRb), hCD122 with H133D and Y134F (human, UniProt P14784 27-550)
# T1 sequence: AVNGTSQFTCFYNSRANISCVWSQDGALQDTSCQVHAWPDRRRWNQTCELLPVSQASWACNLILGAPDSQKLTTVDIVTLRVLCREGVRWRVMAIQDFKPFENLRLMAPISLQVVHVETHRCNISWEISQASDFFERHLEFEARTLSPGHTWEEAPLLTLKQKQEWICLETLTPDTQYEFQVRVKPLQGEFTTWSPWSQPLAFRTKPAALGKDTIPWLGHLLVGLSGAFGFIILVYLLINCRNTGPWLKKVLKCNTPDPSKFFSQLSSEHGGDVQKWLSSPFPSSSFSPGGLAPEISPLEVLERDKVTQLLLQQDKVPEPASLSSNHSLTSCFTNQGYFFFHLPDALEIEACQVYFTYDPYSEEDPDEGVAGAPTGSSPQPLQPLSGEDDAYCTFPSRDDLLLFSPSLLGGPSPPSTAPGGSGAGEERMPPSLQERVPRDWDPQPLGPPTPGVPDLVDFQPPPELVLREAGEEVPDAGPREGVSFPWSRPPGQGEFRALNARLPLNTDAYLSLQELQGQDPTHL
# assay-details: cell-based or functional assay
endpoint-label: NKL Ortho Proliferation Signal 1:50

{"binder": "SQVLDA (ligand) APTSSSTKKTQLQLSQLLVLLDAILNGINNYKNPKLTRMLTFKFYMPKKATELKHLQCLEEELKPLEEVLNLAQSKNFHLRPRDLISNINVIVLELKGSETTFMCEYADETATIVEFLNRWITFCQSIISTLT", "reported-measurement": 11600}
{"binder": "SQVLGA (ligand) APTSSSTKKTQLQLSQLLVLLGAILNGINNYKNPKLTRMLTFKFYMPKKATELKHLQCLEEELKPLEEVLNLAQSKNFHLRPRDLISNINVIVLELKGSETTFMCEYADETATIVEFLNRWITFCQSIISTLT", "reported-measurement": 8730}
{"binder": "L85V, SQVLKA (ligand) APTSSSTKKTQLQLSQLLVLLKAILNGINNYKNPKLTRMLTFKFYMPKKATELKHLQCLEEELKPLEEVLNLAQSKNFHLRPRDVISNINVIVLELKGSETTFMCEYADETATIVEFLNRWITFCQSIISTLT", "reported-measurement": 24200}
{"binder": "L14W, SQVLKA (ligand) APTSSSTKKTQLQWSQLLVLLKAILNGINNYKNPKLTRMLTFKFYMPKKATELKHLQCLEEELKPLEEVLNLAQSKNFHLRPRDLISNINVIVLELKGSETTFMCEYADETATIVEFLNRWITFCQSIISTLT", "reported-measurement": 20900}
{"binder": "SQVLLA (ligand) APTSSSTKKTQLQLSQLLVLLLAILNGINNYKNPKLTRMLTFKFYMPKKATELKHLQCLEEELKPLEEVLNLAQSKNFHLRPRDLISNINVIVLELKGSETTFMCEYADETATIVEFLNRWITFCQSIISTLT", "reported-measurement": 8570}
{"binder": "K97Q, SQVLKA (ligand) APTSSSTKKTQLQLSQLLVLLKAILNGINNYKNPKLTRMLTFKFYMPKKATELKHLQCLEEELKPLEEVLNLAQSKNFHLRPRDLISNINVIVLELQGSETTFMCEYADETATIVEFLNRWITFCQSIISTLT", "reported-measurement": 25200}
{"binder": "L18G, SQVLKA (ligand) APTSSSTKKTQLQLSQLGVLLKAILNGINNYKNPKLTRMLTFKFYMPKKATELKHLQCLEEELKPLEEVLNLAQSKNFHLRPRDLISNINVIVLELKGSETTFMCEYADETATIVEFLNRWITFCQSIISTLT", "reported-measurement": 8640}
{"binder": "SQVLIA (ligand) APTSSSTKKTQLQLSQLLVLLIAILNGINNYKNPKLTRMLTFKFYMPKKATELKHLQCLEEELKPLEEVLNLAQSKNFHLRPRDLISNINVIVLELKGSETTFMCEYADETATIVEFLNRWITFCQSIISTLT", "reported-measurement": 6780}
{"binder": "H55Y, SQVLKA (ligand) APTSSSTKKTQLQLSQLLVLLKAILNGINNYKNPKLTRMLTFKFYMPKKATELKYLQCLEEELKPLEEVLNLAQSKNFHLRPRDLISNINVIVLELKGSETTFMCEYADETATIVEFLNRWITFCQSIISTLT", "reported-measurement": 17800}
{"binder": "Q126E, SQVLKA (ligand) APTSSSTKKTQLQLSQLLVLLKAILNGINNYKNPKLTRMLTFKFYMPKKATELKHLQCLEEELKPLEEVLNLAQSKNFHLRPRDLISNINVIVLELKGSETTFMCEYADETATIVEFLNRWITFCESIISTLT", "reported-measurement": 6800}
{"binder": "L18F, SQVLKA (ligand) APTSSSTKKTQLQLSQLFVLLKAILNGINNYKNPKLTRMLTFKFYMPKKATELKHLQCLEEELKPLEEVLNLAQSKNFHLRPRDLISNINVIVLELKGSETTFMCEYADETATIVEFLNRWITFCQSIISTLT", "reported-measurement": 19400}
{"binder": "T3G, SQVLKA (ligand) APGSSSTKKTQLQLSQLLVLLKAILNGINNYKNPKLTRMLTFKFYMPKKATELKHLQCLEEELKPLEEVLNLAQSKNFHLRPRDLISNINVIVLELKGSETTFMCEYADETATIVEFLNRWITFCQSIISTLT", "reported-measurement": 32200}
{"binder": "SQVLMA (ligand) APTSSSTKKTQLQLSQLLVLLMAILNGINNYKNPKLTRMLTFKFYMPKKATELKHLQCLEEELKPLEEVLNLAQSKNFHLRPRDLISNINVIVLELKGSETTFMCEYADETATIVEFLNRWITFCQSIISTLT", "reported-measurement": 11000}
{"binder": "L18V, SQVLKA (ligand) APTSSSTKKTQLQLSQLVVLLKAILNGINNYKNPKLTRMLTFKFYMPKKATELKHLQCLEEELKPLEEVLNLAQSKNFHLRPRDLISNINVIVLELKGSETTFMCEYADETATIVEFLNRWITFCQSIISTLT", "reported-measurement": 8670}
